tested_target: glycerol-3-phosphate dehydrogenase (GPDH) (Rattus norvegicus, UniProt P35571)
Construct: The activity of GPDH in intact mitochondria (0.3 mg/mL) was measured; from tissue; host or cells: rat skeletal muscle mitochondria (Wistar, Harlan Laboratories)
Sequence (P35571 43-727): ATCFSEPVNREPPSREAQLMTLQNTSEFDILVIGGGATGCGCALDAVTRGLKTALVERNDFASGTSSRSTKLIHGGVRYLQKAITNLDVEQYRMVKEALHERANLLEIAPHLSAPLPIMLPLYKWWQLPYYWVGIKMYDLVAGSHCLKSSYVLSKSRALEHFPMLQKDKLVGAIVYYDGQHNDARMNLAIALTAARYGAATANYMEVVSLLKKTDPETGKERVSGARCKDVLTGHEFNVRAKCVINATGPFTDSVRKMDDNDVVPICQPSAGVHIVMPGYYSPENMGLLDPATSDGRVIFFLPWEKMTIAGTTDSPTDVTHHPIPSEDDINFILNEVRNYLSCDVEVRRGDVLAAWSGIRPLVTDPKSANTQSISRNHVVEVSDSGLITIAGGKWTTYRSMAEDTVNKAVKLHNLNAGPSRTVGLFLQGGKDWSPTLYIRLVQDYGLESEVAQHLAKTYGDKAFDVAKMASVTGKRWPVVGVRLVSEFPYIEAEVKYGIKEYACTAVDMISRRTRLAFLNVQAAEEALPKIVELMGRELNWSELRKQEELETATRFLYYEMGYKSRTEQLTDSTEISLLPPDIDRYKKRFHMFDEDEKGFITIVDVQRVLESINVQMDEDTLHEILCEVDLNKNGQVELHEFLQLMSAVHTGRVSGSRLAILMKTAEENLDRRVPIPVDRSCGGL
method_summary: High-throughput screen: ROS production from glycerol-3-phosphate dehydrogenase (GPDH)
Assay type: biochemical
stated_conditions: Table 6; 25 mM glycerol phosphate, rotenone, antimycin A, malonate, myxothiazol; compounds 2.5 μM; scaled to IQ positive controls; read-out: % Reduction in ROS Production (GPDH)
measurement_type: inhibition at 2.5 µM (%)

- Cc1ccc(NC(=O)CCC(=O)O)cc1: -1.8
- O=C(Nc1ccc(-c2nc3ccccc3[nH]2)cc1)c1ccco1: 1.7
- O=C(O)CCC(=O)Nc1ccc(-c2nc3cc(C(=O)c4ccccc4)ccc3[nH]2)cc1: 32.1
- CCOc1ccc(C(=O)Nc2ccc(-c3nc4ccccc4[nH]3)cc2)cc1: -8.2
- O=C(O)CCC(=O)Nc1ccc(-c2nc3ccccc3o2)cc1: 12.2
- Cc1ccc2[nH]c(-c3ccc(NC(=O)CCC(=O)O)cc3)nc2c1: 26
- O=C(O)CCC(=O)Nc1ccc(-c2nc3cc(NC(=O)CCC(=O)O)ccc3[nH]2)cc1: 0.8
- CCCC(=O)Nc1ccc(-c2nc3cc4ccccc4cc3[nH]2)cc1: 11.1
- C=C(C)C(=O)Nc1ccc(-c2nc3ccccc3[nH]2)cc1: -1.5
- O=C(O)CCC(=O)Nc1ccc(-c2nc3ccccc3s2)cc1: 13
- CCN1CCN(C/C=C/c2ccc(N(C)C)cc2)CC1: 13.4
- CCCCCCNC(=O)CCC(=O)O: -0.9
- CC(=O)Nc1ccc(-c2nc3ccccc3[nH]2)cc1: 1.2
- O=C(O)CSc1cccc(C(=O)Nc2ccc(Br)cc2)c1: 14.1
- COC(=O)CCC(=O)Nc1ccc(C)cc1: 0
- CCC1CCCCN1C/C=C/c1ccc(N(C)C)cc1 (centres unmarked): 11
- c1ccc2[nH]c(-c3ccc(-c4nc5ccccc5[nH]4)cc3)nc2c1: -3.3
- O=C(O)CCC(=O)Nc1cccc(-c2nc3ccccc3[nH]2)c1: 4.4
- O=C(O)CCC(=O)Nc1ccc(Cl)cc1: -0.2
- COc1ccc(NC(=S)NC(=O)c2ccco2)cc1: 16
- O=C(Nc1ccc(-c2nc3ccccc3[nH]2)cc1)C1CC1: 1.9
- O=C(O)CCC(=O)Nc1ccc(-c2nc3cc4ccccc4cc3[nH]2)cc1: 48.3
- O=C(O)/C=C/C(=O)Nc1ccc(/C=C/c2ccccc2)cc1: 12.7
